- assay system: SHC4 (Homo sapiens, UniProt Q6S5L8)
- Construct: made in house; host or cells: HEK293 (transient transfection), unpurified extract
- Sequence (Q6S5L8 1-630): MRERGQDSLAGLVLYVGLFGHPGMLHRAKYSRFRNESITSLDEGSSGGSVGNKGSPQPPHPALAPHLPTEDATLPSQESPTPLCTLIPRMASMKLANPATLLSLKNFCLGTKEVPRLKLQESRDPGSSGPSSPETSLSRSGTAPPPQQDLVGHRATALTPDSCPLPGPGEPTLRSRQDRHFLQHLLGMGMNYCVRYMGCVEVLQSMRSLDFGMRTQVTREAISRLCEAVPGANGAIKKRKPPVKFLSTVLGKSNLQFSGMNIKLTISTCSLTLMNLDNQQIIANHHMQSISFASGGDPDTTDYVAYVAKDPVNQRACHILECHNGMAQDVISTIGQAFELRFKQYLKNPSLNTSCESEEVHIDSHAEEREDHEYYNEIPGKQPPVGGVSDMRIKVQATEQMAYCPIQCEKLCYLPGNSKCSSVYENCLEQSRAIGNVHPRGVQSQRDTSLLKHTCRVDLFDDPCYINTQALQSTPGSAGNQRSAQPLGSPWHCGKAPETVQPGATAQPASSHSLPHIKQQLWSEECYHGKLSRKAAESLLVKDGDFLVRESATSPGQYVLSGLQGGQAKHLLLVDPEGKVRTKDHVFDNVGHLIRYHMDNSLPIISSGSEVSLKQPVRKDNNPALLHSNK
- assay comment: biochemical
- Type: binding
- setup conditions: primary screen, 10 μM; read-out: percent of DMSO vehicle control
readout label: remaining activity at 10 µM (%)

• O=C(COc1ccc2cc(C(=O)Nc3ccccc3)ccc2c1)NCc1ccc(OP(=O)(O)O)c(OP(=O)(O)O)c1 = 103
• O=C(CCl)Nc1cccc(CNC(=O)[C@H](Cc2ccc(OP(=O)(O)O)cc2)NC(=O)Cc2ccc(F)cc2)c1 = 93
• C/C(=C\C(=O)N[C@H](C(=O)N1CCC[C@H]1C(=O)N(c1ccccc1)c1ccc(I)cc1)C(C)(C)C)c1ccc(OP(=O)(O)O)cc1 = 77.1
• CC(C)(C)[C@H](NC(=O)/C=C/c1ccc(OP(=O)(O)O)cc1)C(=O)N1CCC[C@H]1C(=O)N(c1ccccc1)c1ccc(I)cc1 = 90.2

====

- assay system: STAT3(N647I)-nonphosphorylated (Homo sapiens, UniProt P40763, N647I)
- Construct: made in house; host or cells: HEK293 (transient transfection), unpurified extract, dephosphorylated by endogenous phosphatases
- Sequence (P40763 whole entry N647I): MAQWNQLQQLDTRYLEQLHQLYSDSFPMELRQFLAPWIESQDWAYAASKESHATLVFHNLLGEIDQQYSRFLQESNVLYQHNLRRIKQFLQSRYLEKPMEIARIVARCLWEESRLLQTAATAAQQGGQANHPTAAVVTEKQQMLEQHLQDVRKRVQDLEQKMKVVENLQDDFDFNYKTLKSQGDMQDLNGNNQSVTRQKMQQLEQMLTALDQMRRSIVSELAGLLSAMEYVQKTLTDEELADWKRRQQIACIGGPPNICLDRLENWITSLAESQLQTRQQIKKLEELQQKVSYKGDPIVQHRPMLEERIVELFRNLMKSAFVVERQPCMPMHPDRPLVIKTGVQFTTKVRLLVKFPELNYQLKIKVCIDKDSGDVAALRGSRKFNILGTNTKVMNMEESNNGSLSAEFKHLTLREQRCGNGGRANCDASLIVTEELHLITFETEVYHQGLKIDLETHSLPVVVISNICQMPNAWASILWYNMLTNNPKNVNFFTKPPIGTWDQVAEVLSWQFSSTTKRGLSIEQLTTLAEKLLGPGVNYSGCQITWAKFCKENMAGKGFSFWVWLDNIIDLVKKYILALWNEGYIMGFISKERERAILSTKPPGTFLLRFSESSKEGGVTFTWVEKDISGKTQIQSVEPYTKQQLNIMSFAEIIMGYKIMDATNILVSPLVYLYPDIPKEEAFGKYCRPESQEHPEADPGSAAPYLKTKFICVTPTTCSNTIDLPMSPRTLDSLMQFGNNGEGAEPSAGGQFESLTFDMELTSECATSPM
- assay comment: biochemical
- Type: binding
readout label: Kd

* CC(=O)N1CC[C@H]2CC[C@@H](C(=O)N[C@@H](CCC(N)=O)C(=O)NC(c3ccccc3)c3ccccc3)N2C(=O)[C@@H](NC(=O)c2cc3cc(C(F)(F)P(=O)(O)O)ccc3[nH]2)C1 | 25 nM

====

- assay system: STAT3(Y640F)-nonphosphorylated (Homo sapiens, UniProt P40763, Y640F)
- Construct: made in house; host or cells: HEK293 (transient transfection), unpurified extract, dephosphorylated by endogenous phosphatases
- Sequence (P40763 whole entry Y640F): as the sequence (P40763 whole entry N647I) above, with Y640F, I647N counted along it
- assay comment: biochemical
- Type: binding
pKd: −log10 of the molar value.
readout label: pKd

• CC(=O)N1CC[C@H]2CC[C@@H](C(=O)N[C@@H](CCC(N)=O)C(=O)NC(c3ccccc3)c3ccccc3)N2C(=O)[C@@H](NC(=O)c2cc3cc(C(F)(F)P(=O)(O)O)ccc3[nH]2)C1 = 7.11

====

- assay system: SOCS4 (Homo sapiens)
- Construct: made in house; host or cells: HEK293 (transient transfection), unpurified extract
- Sequence (Q8WXH5 whole entry): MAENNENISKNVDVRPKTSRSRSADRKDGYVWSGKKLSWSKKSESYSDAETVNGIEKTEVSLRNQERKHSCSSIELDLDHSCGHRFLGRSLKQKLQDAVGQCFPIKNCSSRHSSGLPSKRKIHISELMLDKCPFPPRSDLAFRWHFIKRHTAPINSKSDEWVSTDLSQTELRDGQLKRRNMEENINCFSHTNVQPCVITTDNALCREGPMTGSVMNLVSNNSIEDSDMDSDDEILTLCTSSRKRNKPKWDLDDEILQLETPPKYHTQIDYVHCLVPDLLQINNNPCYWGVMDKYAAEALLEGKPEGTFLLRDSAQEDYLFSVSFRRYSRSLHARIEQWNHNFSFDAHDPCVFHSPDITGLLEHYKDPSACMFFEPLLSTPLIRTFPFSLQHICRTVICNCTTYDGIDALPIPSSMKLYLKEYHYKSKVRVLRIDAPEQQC
- assay comment: biochemical
- Assay type: binding
- setup conditions: read-out: percent of DMSO vehicle control
Non-standard residues stand in square brackets, D forms with d. Residues, ends and D or L forms follow the SMILES beside them. *: point of attachment. pY = N[C@@H](Cc1ccc(OP(=O)(O)O)cc1)C(=O)O; Caffeoyl = O=C(/C=C/c1ccc(O)c(O)c1)*
readout label: remaining activity at 10 µM (%)

* CC(=O)N[C@@H](Cc1ccc(CP(=O)(O)O)cc1)C(=O)NC1(C(=O)N[C@@H](CC(N)=O)C(=O)NCCCc2c(O)ccc3ccccc23)CCCCC1 [CGP78850] | 101
* NC(=O)CC[C@H](NC(=O)[C@@H]1CC[C@@H]2CCN(C(=O)CCCCCC#Cc3cccc4c3CN(C3CCC(=O)NC3=O)C4=O)C[C@H](NC(=O)c3cc4cc(C(F)(F)P(=O)(O)O)ccc4[nH]3)C(=O)N21)C(=O)NC(c1ccccc1)c1ccccc1 (stereo partly shown) [SD-36] | 30
* CC[C@H](C)[C@H](NC(=O)[C@H](CCC(=O)O)NC(=O)[C@H](CCC(=O)O)NC(=O)[C@H](Cc1ccc(OP(=O)(O)O)cc1)NC(=O)/C=C/c1ccc(O)c(O)c1)C(=O)N[C@@H](CCC(=O)O)C(=O)O [Caffeic acid-pYEEIE] (Caffeoyl-[pY]EEIE-OH) | 2.5
* CC(=O)N1CC[C@H]2CC[C@@H](C(=O)N[C@@H](CCC(N)=O)C(=O)NC(c3ccccc3)c3ccccc3)N2C(=O)[C@@H](NC(=O)c2cc3cc(C(F)(F)P(=O)(O)O)ccc3[nH]2)C1 [SI-109] | 123

====

- assay system: LCK (Homo sapiens)
- Construct: the DNA-tagged SH2 domain concentrations used in this study were <0.1 nM; made in house; host or cells: HEK293 (transient transfection, unpurified extract)
- Sequence (P06239 127-224 limits assumed): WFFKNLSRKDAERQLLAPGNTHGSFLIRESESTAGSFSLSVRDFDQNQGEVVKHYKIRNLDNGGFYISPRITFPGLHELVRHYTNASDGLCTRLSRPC
- assay comment: biochemical
- Type: binding
- setup conditions: primary screen, 10 μM; read-out: percent of DMSO vehicle control
readout label: remaining activity at 10 µM (%)

• CC(C)(C)[C@H](NC(=O)/C=C/c1ccc(OP(=O)(O)O)cc1)C(=O)N1CCC[C@H]1C(=O)N(c1ccccc1)c1ccc(I)cc1 = 72
• O=C(COc1ccc2cc(C(=O)Nc3ccccc3)ccc2c1)NCc1ccc(OP(=O)(O)O)c(OP(=O)(O)O)c1 = 97.4
• C/C(=C\C(=O)N[C@H](C(=O)N1CCC[C@H]1C(=O)N(c1ccccc1)c1ccc(I)cc1)C(C)(C)C)c1ccc(OP(=O)(O)O)cc1 = 48.3
• O=C(CCl)Nc1cccc(CNC(=O)[C@H](Cc2ccc(OP(=O)(O)O)cc2)NC(=O)Cc2ccc(F)cc2)c1 = 98.7

====

- assay system: PTPN6(SH2dom.N-term.) (Homo sapiens, UniProt P29350)
- Construct: SH2dom.N-term. denotes SH2 domain closest to N-terminus of protein; made in house; host or cells: HEK293 (transient transfection, unpurified extract)
- Sequence (P29350 4-100 limits assumed): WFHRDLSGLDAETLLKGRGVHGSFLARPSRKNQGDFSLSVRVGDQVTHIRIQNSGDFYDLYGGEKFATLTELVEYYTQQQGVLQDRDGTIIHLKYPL
- assay comment: biochemical
- Assay type: binding
- setup conditions: read-out: percent of DMSO vehicle control
Non-standard residues stand in square brackets, D forms with d. Residues, ends and D or L forms follow the SMILES beside them. *: point of attachment. pY = N[C@@H](Cc1ccc(OP(=O)(O)O)cc1)C(=O)O; Caffeoyl = O=C(/C=C/c1ccc(O)c(O)c1)*
readout label: remaining activity at 10 µM (%)

* CC(=O)N[C@@H](Cc1ccc(CP(=O)(O)O)cc1)C(=O)NC1(C(=O)N[C@@H](CC(N)=O)C(=O)NCCCc2c(O)ccc3ccccc23)CCCCC1 [CGP78850] | 112
* NC(=O)CC[C@H](NC(=O)[C@@H]1CC[C@@H]2CCN(C(=O)CCCCCC#Cc3cccc4c3CN(C3CCC(=O)NC3=O)C4=O)C[C@H](NC(=O)c3cc4cc(C(F)(F)P(=O)(O)O)ccc4[nH]3)C(=O)N21)C(=O)NC(c1ccccc1)c1ccccc1 (stereo partly shown) [SD-36] | 87.3
* CC[C@H](C)[C@H](NC(=O)[C@H](CCC(=O)O)NC(=O)[C@H](CCC(=O)O)NC(=O)[C@H](Cc1ccc(OP(=O)(O)O)cc1)NC(=O)/C=C/c1ccc(O)c(O)c1)C(=O)N[C@@H](CCC(=O)O)C(=O)O [Caffeic acid-pYEEIE] (Caffeoyl-[pY]EEIE-OH) | 118
* CC(=O)N1CC[C@H]2CC[C@@H](C(=O)N[C@@H](CCC(N)=O)C(=O)NC(c3ccccc3)c3ccccc3)N2C(=O)[C@@H](NC(=O)c2cc3cc(C(F)(F)P(=O)(O)O)ccc3[nH]2)C1 [SI-109] | 123

====

- assay system: PLCG2(SH2dom.C-term.) (Homo sapiens, UniProt P16885)
- Construct: SH2dom.C-term. denotes SH2 domain closest to C-terminus of protein; made in house; host or cells: HEK293 (transient transfection, unpurified extract)
- Sequence (P16885 646-735 limits assumed): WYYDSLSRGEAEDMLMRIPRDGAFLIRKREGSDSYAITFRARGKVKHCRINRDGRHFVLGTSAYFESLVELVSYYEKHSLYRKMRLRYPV
- assay comment: biochemical
- Format: binding
- setup conditions: primary screen, 10 μM; read-out: percent of DMSO vehicle control
readout label: remaining activity at 10 µM (%)

* O=C(CCl)Nc1cccc(CNC(=O)[C@H](Cc2ccc(OP(=O)(O)O)cc2)NC(=O)Cc2ccc(F)cc2)c1 | 133
* CC(C)(C)[C@H](NC(=O)/C=C/c1ccc(OP(=O)(O)O)cc1)C(=O)N1CCC[C@H]1C(=O)N(c1ccccc1)c1ccc(I)cc1 | 75.3
* O=C(COc1ccc2cc(C(=O)Nc3ccccc3)ccc2c1)NCc1ccc(OP(=O)(O)O)c(OP(=O)(O)O)c1 | 80.4
* C/C(=C\C(=O)N[C@H](C(=O)N1CCC[C@H]1C(=O)N(c1ccccc1)c1ccc(I)cc1)C(C)(C)C)c1ccc(OP(=O)(O)O)cc1 | 7.5
